Molecular target: T1, Bdf1 bromodomain 1 (GST-tagged, WT) (Saccharomyces cerevisiae (strain ATCC …, UniProt P35817))
T1 chain: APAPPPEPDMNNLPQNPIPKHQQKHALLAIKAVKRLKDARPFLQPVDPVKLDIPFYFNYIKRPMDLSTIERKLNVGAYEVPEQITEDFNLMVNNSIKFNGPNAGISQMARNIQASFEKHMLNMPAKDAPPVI
Test: histone peptide array probed with recombinant GST-bromodomain, signal normalised to myc peptide control
Non-standard residues stand in square brackets, D forms with d. No end group written: not given here. Arg(Me2a) = CN(C)C(=N)NCCC[C@H](N)C(=O)O; pS = N[C@@H](COP(=O)(O)O)C(=O)O; Lys(Me) = CNCCCC[C@H](N)C(=O)O
Each entry below lists one item and its recorded binding score value.

SGRGKGGKGLGKGGAKRHR (pS G Rme2s G Kac G G Kac G L G K G G A K R H R) [H4 1-19] | 0.126

stdin: GET /values?readout=binding score&item= PRKQLATKAARK(Ac)[pS]APATGG [H3 16-35]
stdout: 0

stdin: Value lookup for binding score; key = `A[Arg(Me2a)]TK(Ac)QTA[Arg(Me2a)][Lys(Me)]STGGKAPRKQ`
stdout: 0.00897

stdin: Need binding score of ARTKQTARKSTGGKAPRKQ (A R T K Q T A R Kme2 S T G G Kac A P R K Q) , thanks.
stdout: 0.0411

stdin: What value of measured binding score is listed for ARTKQTARKSTGGKAPRKQ (A Rme2s T Kme1 Q T A Rme2s Kme3 S T G G K A P R K Q) ?
stdout: 0.00161

stdin: Return reported binding score; argument: ARTKQTARKSTGGKAPRKQ (A Rme2s T Kme3 Q T A Rme2s K S T G G K A P R K Q)
stdout: 0.00861

stdin: May I ask what binding score has been recorded for RKSAPATGGVKKPHRYRPG (R K S A P A T G G V Kme2 K P H R Y R P G) [H3 26-45] ?
stdout: 0
